assayed system: CYP2C19 (Homo sapiens)
Construct: purchased Gentest Corporation P259
Sequence (P33261 whole entry): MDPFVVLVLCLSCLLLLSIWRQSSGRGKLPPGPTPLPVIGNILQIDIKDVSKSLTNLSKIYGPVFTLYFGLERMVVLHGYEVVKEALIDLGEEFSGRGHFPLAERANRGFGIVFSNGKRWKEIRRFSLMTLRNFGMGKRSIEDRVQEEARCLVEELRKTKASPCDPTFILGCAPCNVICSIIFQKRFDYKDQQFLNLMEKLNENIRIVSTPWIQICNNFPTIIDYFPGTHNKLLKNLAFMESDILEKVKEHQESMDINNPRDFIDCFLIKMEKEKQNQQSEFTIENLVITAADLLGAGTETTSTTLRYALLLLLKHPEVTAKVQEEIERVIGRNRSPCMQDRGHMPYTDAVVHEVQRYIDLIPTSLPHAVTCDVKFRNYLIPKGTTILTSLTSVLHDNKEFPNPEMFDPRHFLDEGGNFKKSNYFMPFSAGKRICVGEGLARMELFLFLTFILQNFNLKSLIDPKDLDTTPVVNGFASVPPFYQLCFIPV
test description: Cytochrome P450 enzyme assay, CYP2C19 (Gentest Supersomes, fluorometric)
Format: in vitro ADME
experimental conditions: human recombinant enzyme, mean IC50; read-out: CP450 2C19 IC50
pIC50: −log10 of the molar value.
Measured pIC50 of individual entries
measurement name: pIC50

INSERT INTO measurements (compound, test_value) VALUES
  ('CC(=O)c1cc(C)cc(C)c1NC(=O)c1sccc1S(=O)(=O)Nc1onc(C)c1C', 3.90),
  ('Cc1cc(C)c(NC(=O)c2sccc2S(=O)(=O)Nc2onc(C)c2Cl)c(Cl)c1', 5.34),
  ('Cc1cc(C)c(NC(=O)c2sccc2S(=O)(=O)Nc2onc(C)c2Cl)c(S(C)(=O)=O)c1', 5.21),
  ('Cc1cc2c(cc1CC(=O)c1sccc1S(=O)(=O)Nc1onc(C)c1Cl)OCO2 [reference compound]', 6.70);

// data source = patent US6686382B2
